Molecular target: adenosine A1 receptor (Homo sapiens, UniProt P30542)
Construct: expressed in transfected cells; host or cells: CHO (Chinese Hamster Ovary)
Sequence (P30542 whole entry): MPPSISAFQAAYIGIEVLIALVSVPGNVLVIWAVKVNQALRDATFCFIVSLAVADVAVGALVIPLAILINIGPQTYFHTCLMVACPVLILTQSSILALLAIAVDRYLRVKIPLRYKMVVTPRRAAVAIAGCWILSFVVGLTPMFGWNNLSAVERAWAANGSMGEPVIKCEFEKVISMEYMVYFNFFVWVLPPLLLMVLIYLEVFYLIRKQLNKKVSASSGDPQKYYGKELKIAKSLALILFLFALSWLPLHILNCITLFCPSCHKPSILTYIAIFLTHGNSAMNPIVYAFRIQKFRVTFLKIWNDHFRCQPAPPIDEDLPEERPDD
Test: Indirect determination of adenosine agonism by gene expression (luciferase reporter), A1 cells
Type: cell-based
Conditions: CHO cells stably transfected with A1 receptor cDNA; 1 μM forskolin; 50% inhibition of luciferase answer
MEASUREMENT_LABEL: EC50 (nM)

Worked examples, 3 compounds total:
CNC(=O)c1nc(CSc2nc(N)c(C#N)c(-c3ccc(OC4CCOC4)cc3)c2C#N)cs1 (racemic) : 0.51
N#Cc1c(N)nc(SCc2csc(Nc3ccc(F)cc3)n2)c(C#N)c1-c1ccc(O[C@H]2COC[C@@H]2O)cc1 (single isomer, unassigned) : 0.56
N#Cc1c(N)nc(SCc2csc(N)n2)c(C#N)c1-c1ccc(O[C@H]2CCCC[C@@H]2O)cc1 : 104

1 = COC(=O)c1cccc(C(C)Sc2nc(N)c(C#N)c(-c3ccc(OC4CCOC4)cc3)c2C#N)c1 (single isomer, unassigned; ent-3)
2 = N#Cc1c(N)nc(SCc2ccccn2)c(C#N)c1-c1ccc(O[C@H]2COC[C@@H]2O)cc1 (single isomer, unassigned)
3 = Cc1oc(-c2ccc(C(=O)O)cc2)nc1CSc1nc(N)c(C#N)c(-c2ccc(OC3CCOC3)cc2)c1C#N (racemic)
4 = CC(Sc1nc(N)c(C#N)c(-c2ccc(OC3CCOC3)cc2)c1C#N)c1cccc(C(N)=O)c1 (single isomer, unassigned; ent-3)
Sort ascending by EC50. List the labels according to the requested ordering.
3, 4, 2, 1

a = N#Cc1c(N)nc(SCc2cccc(C(N)=O)c2)c(C#N)c1-c1ccc(OC2CCOC2)c(F)c1 (centres unmarked)
b = N#Cc1c(N)nc(SCc2c[nH]cn2)c(C#N)c1-c1ccc(O[C@H]2CCCC[C@@H]2O)cc1
c = N#Cc1c(N)nc(SCc2cccnc2)c(C#N)c1-c1ccc(O[C@H]2CCCC[C@@H]2O)cc1
d = N#Cc1c(N)nc(SCc2cscn2)c(C#N)c1-c1ccc(O[C@H]2CCCC[C@@H]2O)cc1
Sort ascending by EC50. List the labels according to the requested ordering.
a, c, d, b

1 = N#Cc1c(N)nc(SCc2csc(C(N)=O)n2)c(C#N)c1-c1ccc(OC2CCOC2)cc1 (racemic)
2 = N#Cc1c(N)nc(SCc2cccc(C(N)=O)c2)c(C#N)c1-c1ccc(OC2CCOC2)cc1 (centres unmarked)
Returns: the argument ( 1 or 2 ) having the larger EC50. Refer to your chosen item by its label in the answer.
1

----------
Target: adenosine A2a receptor (Homo sapiens)
Test: Indirect determination of adenosine agonism by gene expression (luciferase reporter), A2a cells
Conditions: CHO cells stably transfected with A2a receptor cDNA; 50% of maximum stimulation
pEC50: −log10 of the molar value.
MEASUREMENT_LABEL: pEC50

Worked examples, 5 molecules total:
N#Cc1c(N)nc(SCc2csc(C(N)=O)n2)c(C#N)c1-c1ccc(OC2CCOC2)cc1 (racemic) : 5.96
N#Cc1c(N)nc(SCc2cccnc2)c(C#N)c1-c1ccc(O[C@H]2CCC[C@H]2O)cc1 (racemic) : 6.32
N#Cc1c(N)nc(SCc2cccc(C(N)=O)c2)c(C#N)c1-c1ccc(OC2CCOC2)cc1 (centres unmarked) : 6.37
CNC(=O)c1cc(CSc2nc(N)c(C#N)c(-c3ccc(OC4CCOC4)cc3)c2C#N)ccn1 (centres unmarked) : 7.16
N#Cc1c(N)nc(SCc2cccc(C(N)=O)c2)c(C#N)c1-c1ccc(OC2CCOC2)c(F)c1 (centres unmarked) : 6.04

1 = N#Cc1c(N)nc(SCc2cccnc2)c(C#N)c1-c1ccc(O[C@H]2CCCC[C@@H]2O)cc1
2 = N#Cc1c(SCc2csc(-c3ccc(Cl)cc3)n2)nc(N2CC(O)C2)c(C#N)c1-c1ccc(O[C@H]2COC[C@@H]2O)cc1 (single isomer, unassigned)
Record comparison, field pEC50: mark the lower of 1 and 2 . Refer to your chosen item by its label in the answer.
2

P = N#Cc1c(N)nc(SCc2cscn2)c(C#N)c1-c1ccc(O[C@H]2CCCC[C@@H]2O)cc1
Q = N#Cc1ccccc1CSc1nc(N)c(C#N)c(-c2ccc(O[C@H]3CCCC[C@@H]3O)cc2)c1C#N (single isomer, unassigned)
Record comparison, field pEC50: mark the lower of P and Q . Refer to your chosen item by its label in the answer.
P
(P: 5.72, Q: 6.29)

1 = N#Cc1c(N)nc(SCc2csc(-c3ccc(Cl)cc3)n2)c(C#N)c1-c1ccc(O[C@H]2COC[C@@H]2O)cc1 (racemic)
2 = CNC(=O)c1nc(CSc2nc(N)c(C#N)c(-c3ccc(OC4CCOC4)cc3)c2C#N)cs1 (racemic)
Returns: the argument ( 1 or 2 ) having the larger pEC50. Refer to your chosen item by its label in the answer.
2

----------
Target: adenosine A2a receptor (Homo sapiens, UniProt P29274)
Sequence (P29274 whole entry): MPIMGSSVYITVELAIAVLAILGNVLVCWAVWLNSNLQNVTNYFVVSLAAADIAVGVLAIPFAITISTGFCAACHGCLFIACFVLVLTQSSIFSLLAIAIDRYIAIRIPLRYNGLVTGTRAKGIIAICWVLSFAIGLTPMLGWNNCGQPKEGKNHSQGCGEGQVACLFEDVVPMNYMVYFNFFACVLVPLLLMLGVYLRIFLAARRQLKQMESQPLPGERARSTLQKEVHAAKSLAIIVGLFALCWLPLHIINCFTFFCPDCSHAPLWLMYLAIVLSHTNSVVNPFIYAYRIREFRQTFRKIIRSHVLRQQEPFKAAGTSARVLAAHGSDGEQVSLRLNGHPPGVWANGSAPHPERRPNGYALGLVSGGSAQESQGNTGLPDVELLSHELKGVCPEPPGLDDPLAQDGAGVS
Test: Indirect determination of adenosine agonism by gene expression (luciferase reporter), A2a cells
Conditions: CHO cells stably transfected with A2a receptor cDNA; 50% of maximum stimulation
Description: Cells of the CHO (Chinese Hamster Ovary) permanent cell line are transfected stably with the cDNA for the adenosine receptor subtypes A1, A2a and A2b. The adenosine A1 receptors are coupled to the adenylate cyclase by way of Gi proteins, while the adenosine A2a and A2b receptors are coupled by way of Gs proteins. In correspondence with this, the formation of cAMP in the cell is inhibited or stimulated, respectively. […]
pEC50: −log10 of the molar value.
MEASUREMENT_LABEL: pEC50

N#Cc1c(N)nc(SCc2csc(Nc3ccc(F)cc3)n2)c(C#N)c1-c1ccc(O[C@H]2COC[C@@H]2O)cc1 (single isomer, unassigned) : 6.06

1 = N#Cc1c(N)nc(SCc2ccccn2)c(C#N)c1-c1ccc(O[C@H]2COC[C@@H]2O)cc1 (single isomer, unassigned)
2 = Cc1oc(-c2ccc(C(=O)O)cc2)nc1CSc1nc(N)c(C#N)c(-c2ccc(OC3CCOC3)cc2)c1C#N (racemic)
Returns: the argument ( 1 or 2 ) having the larger pEC50. Refer to your chosen item by its label in the answer.
1
